meta.source: the kinase profiling compilation of Christmann-Franck et al. (2016)

molecular target: CSK (human) (UniProt P41240); assay: KINOMEscan competition binding; settings: compound 10.0 µM
Sequence (P41240 whole entry, looked up): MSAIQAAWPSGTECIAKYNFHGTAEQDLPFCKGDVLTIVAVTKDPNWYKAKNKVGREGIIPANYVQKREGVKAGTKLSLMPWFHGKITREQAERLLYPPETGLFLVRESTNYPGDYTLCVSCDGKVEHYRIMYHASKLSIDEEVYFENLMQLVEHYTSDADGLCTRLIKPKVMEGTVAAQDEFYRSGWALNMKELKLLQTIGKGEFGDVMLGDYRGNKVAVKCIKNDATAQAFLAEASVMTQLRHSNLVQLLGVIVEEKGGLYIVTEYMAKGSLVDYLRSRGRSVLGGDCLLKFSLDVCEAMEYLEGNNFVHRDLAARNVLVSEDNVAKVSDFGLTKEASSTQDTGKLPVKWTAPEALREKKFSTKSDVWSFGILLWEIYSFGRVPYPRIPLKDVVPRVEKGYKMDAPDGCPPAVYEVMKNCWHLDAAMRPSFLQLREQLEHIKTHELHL
# kinase still bound, per cent of control per entry
READOUT KIND: kinase still bound, per cent of control (%)

>  <STRUCTURE STRING>
CCN1CCN(Cc2ccc(NC(=O)c3ccc(C)c(/C=C/c4cnc(Nc5cc(N6CCNCC6)nc(C)n5)cn4)c3)cc2C(F)(F)F)CC1

>  <ENDPOINT VALUE>
0.55

$$$$
>  <STRUCTURE STRING>
CCN1CCN(Cc2ccc(NC(=O)c3ccc(C)c(Oc4ccnc5[nH]ccc45)c3)cc2C(F)(F)F)CC1

>  <ENDPOINT VALUE>
0.45

$$$$
>  <STRUCTURE STRING>
CCOc1cc(N2CCC(N3CCCCC3)CC2)ccc1Nc1nc(Nc2ccccc2S(=O)(=O)C(C)C)c2cn[nH]c2n1

>  <ENDPOINT VALUE>
100

$$$$
>  <STRUCTURE STRING>
COc1cc(N2CCC(N3CCN(C)CC3)CC2)ccc1Nc1ncc(Cl)c(Nc2ccccc2S(=O)(=O)C(C)C)n1

>  <ENDPOINT VALUE>
2

$$$$

----------
We begin with a simple list: items and their reported kinase still bound, per cent of control.
target: UniProt P22694; experiment: KINOMEscan competition binding; settings: compound 10.0 µM
READOUT KIND: kinase still bound, per cent of control (%)

>  <STRUCTURE STRING>
COc1cc(N2CCC(N3CCN(C)CC3)CC2)ccc1Nc1ncc(Cl)c(Nc2ccccc2S(=O)(=O)C(C)C)n1

>  <STUDY SYSTEM>
UniProt P22694

>  <ENDPOINT VALUE>
9.9

$$$$
>  <STRUCTURE STRING>
CCN1CCN(Cc2ccc(NC(=O)c3ccc(C)c(/C=C/c4cnc(Nc5cc(N6CCNCC6)nc(C)n5)cn4)c3)cc2C(F)(F)F)CC1

>  <STUDY SYSTEM>
UniProt P22694

>  <ENDPOINT VALUE>
90

$$$$
>  <STRUCTURE STRING>
CCOc1cc(N2CCC(N3CCCCC3)CC2)ccc1Nc1nc(Nc2ccccc2S(=O)(=O)C(C)C)c2cn[nH]c2n1

>  <STUDY SYSTEM>
UniProt P22694

>  <ENDPOINT VALUE>
100

$$$$
>  <STRUCTURE STRING>
CCN1CCN(Cc2ccc(NC(=O)c3ccc(C)c(Oc4ccnc5[nH]ccc45)c3)cc2C(F)(F)F)CC1

>  <STUDY SYSTEM>
UniProt P22694

>  <ENDPOINT VALUE>
14

$$$$

----------
biological target: TXK (human) (UniProt P42681); assay: KINOMEscan competition binding; settings: compound 10.0 µM
Sequence (P42681 whole entry, looked up): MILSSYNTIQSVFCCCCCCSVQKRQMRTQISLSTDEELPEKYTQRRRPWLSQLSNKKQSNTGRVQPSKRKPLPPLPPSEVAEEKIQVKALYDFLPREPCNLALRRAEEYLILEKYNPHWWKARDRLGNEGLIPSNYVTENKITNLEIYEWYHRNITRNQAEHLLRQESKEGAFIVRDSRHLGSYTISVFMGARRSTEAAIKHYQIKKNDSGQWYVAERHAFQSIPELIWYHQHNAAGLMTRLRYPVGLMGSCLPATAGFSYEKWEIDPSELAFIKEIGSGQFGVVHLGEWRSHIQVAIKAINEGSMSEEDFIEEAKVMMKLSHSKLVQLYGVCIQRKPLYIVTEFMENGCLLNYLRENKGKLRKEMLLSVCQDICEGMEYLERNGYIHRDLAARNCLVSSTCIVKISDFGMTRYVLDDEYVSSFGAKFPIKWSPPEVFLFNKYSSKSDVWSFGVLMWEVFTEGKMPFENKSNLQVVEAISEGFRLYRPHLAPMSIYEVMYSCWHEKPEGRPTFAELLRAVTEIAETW

>  <STRUCTURE STRING>
CCN1CCN(Cc2ccc(NC(=O)c3ccc(C)c(/C=C/c4cnc(Nc5cc(N6CCNCC6)nc(C)n5)cn4)c3)cc2C(F)(F)F)CC1

>  <UNIT OF MEASUREMENT>
%

>  <kinase still bound, per cent of control>
4

$$$$
>  <STRUCTURE STRING>
COc1cc(N2CCC(N3CCN(C)CC3)CC2)ccc1Nc1ncc(Cl)c(Nc2ccccc2S(=O)(=O)C(C)C)n1

>  <UNIT OF MEASUREMENT>
%

>  <kinase still bound, per cent of control>
6.9

$$$$
>  <STRUCTURE STRING>
CCN1CCN(Cc2ccc(NC(=O)c3ccc(C)c(Oc4ccnc5[nH]ccc45)c3)cc2C(F)(F)F)CC1

>  <UNIT OF MEASUREMENT>
%

>  <kinase still bound, per cent of control>
12

$$$$
>  <STRUCTURE STRING>
CCOc1cc(N2CCC(N3CCCCC3)CC2)ccc1Nc1nc(Nc2ccccc2S(=O)(=O)C(C)C)c2cn[nH]c2n1

>  <UNIT OF MEASUREMENT>
%

>  <kinase still bound, per cent of control>
100

$$$$
